test system: NIH-3T3 cells; assay: Hoechst/propidium iodide cell death assay in NIH-3T3; assay type: cell-based; settings: Mus musculus, NIH3T3, 24 h, read-out: Percentage of cell death % 24h NIH3t3
Numbered stars: 1 amine (or outer) side, 2 acyl side, 3 side chain; on linkers, the order of the positions; unused ones are H or OH. Bridge positions count the residues as written; N and C are the ends. Square brackets hold non-standard residues; d marks the D form. Peptide text beside a SMILES is read from it. * marks the point of attachment. pTerphenylCO(4''-OnC5H11) = CCCCCOc1ccc(-c2ccc(-c3ccc(C(=O)*)cc3)cc2)cc1; Orn(4R-OH,5R-OH) = O=C([C@H](C[C@@H](O)[C@@H](O)N[*:3])N[*:1])[*:2]; hTyr(3S-OH,4S-OH) = N[C@H](C(=O)O)[C@H](O)[C@@H](O)c1ccc(O)cc1; Pro(3S-OH,4S-Me) = C[C@H]1CN[C@H](C(=O)O)[C@H]1O; Hyp = O=C(O)[C@@H]1C[C@@H](O)CN1
REPORTED PROPERTY: cytotoxicity at 20 µM (%)
Numbers only, in %.

Query :: // fetch cytotoxicity at 20 µM for COc1cc(C)c(/C=C/C(C)=C/C=C/C(C)=C/C(=O)O)c(C)c1C [Acitretin] ; system: NIH-3T3 cells
Result :: 0.791

Query :: // fetch cytotoxicity at 20 µM for CCCCCOc1ccc(-c2ccc(-c3ccc(C(=O)N[C@H]4C[C@@H](O)[C@@H](O)NC(=O)[C@@H]5[C@@H](O)[C@@H](C)CN5C(=O)[C@H]([C@@H](C)O)NC(=O)[C@H]([C@H](O)[C@@H](O)c5ccc(O)cc5)NC(=O)[C@@H]5C[C@@H](O)CN5C(=O)[C@H]([C@@H](C)O)NC4=O)cc3)cc2)cc1 [Anidulafungin] ({pTerphenylCO(4''-OnC5H11)}-[Orn(4R-OH,5R-OH)]T[Hyp][hTyr(3S-OH,4S-OH)]T[Pro(3S-OH,4S-Me)]; lactam 1-C) ; system: NIH-3T3 cells
Result :: 33.6

With those in mind, consider the next compound.
Query :: // fetch cytotoxicity at 20 µM for C[C@H]1O[C@@H](O[C@H]2CC[C@@]3(C)[C@@H](CC[C@]4(C)[C@@H]3C=C[C@]35OC[C@@]6(CCC(C)(C)C[C@H]63)[C@@H](O)C[C@]54C)[C@]2(C)CO)[C@H](O)[C@@H](O[C@@H]2O[C@H](CO)[C@@H](O)[C@H](O)[C@H]2O)[C@H]1O [Saikosaponin A] ; system: NIH-3T3 cells
Result :: 80.7
